// reported Biodistribution, Stomach per item
# Tested on: SCID mice bearing twin HEK293-CCK2i4svR and wtHEK293 tumors
# protocol: Biodistribution in SCID mice bearing twin HEK293-CCK2i4svR and wtHEK293 xenografts
# Format: in vivo
# test parameters: 24 h pi
Form entry: value (%IA/g) — number only.

compound	assay value
CC(C)(C)C(=O)CN1C(=O)[C@H](NC(=O)Nc2cccc(C(=O)NCCOCCOCCOCCNC(=O)[C@H](CCC(=O)O)NC(=O)CCC(C(=O)O)N3CCN(CC(=O)[O-])CCN(CC(=O)[O-])CCN(CC(=O)[O-])CC3)c2)CN(C2CCCCC2)c2ccccc21.[177Lu+3] (stereo in doubt) [[^177Lu]Lu-GAS3]	0.11

Okay, next one:
Record for CC(C)(C)C(=O)CN1C(=O)[C@H](NC(=O)Nc2cccc(C(=O)NCCOCCOCCOCCNC(=O)[C@H](CCC(=O)O)NC(=O)CCC(C(=O)[O-])N3CCN(CC(=O)[O-])CCN(CC(=O)[O-])CC3)c2)CN(C2CCCCC2)c2ccccc21.[67Ga+3] (stereo in doubt) [[^67Ga]Ga-GAS2] under target or system SCID mice bearing twin HEK293-CCK2i4svR and wtHEK293 tumors: Biodistribution, Stomach reported as 0.06
